In this section we review reported hGIPR Potency, 1% HSA, EC50 [pM] values for a set of binders.
- experimental_target: T1, human GIP receptor (human, UniProt P48546 22-466)
- T1 sequence (looked up): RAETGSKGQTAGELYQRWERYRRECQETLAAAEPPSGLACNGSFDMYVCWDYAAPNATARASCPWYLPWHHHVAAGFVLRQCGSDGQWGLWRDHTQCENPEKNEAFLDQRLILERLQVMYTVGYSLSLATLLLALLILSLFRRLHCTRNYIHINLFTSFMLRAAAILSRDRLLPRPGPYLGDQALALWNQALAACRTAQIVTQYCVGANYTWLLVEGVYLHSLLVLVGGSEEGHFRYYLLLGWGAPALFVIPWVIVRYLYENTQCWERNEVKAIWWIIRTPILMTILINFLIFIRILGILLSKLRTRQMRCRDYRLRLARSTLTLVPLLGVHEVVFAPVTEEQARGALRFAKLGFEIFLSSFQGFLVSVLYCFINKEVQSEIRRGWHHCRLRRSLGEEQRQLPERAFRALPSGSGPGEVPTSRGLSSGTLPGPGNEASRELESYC
- assay_explanation: cell-based or functional assay
Numbered stars: 1 amine (or outer) side, 2 acyl side, 3 side chain; on linkers, the order of the positions; unused ones are H or OH. Square brackets hold non-standard residues; d marks the D form. Side chains are listed from the residue outwards. * marks the point of attachment. C20 diacid = O=C(O)CCCCCCCCCCCCCCCCCCC(=O)*; C18 diacid = O=C(O)CCCCCCCCCCCCCCCCC(=O)*; γGlu = O=C(O)[C@H](CCC(=O)[*:2])N[*:1]; Chem. 28 = not defined here; AEEA = NCCOCCOCC(=O)O; Aib = CC(C)(N)C(=O)O
outcome_measure: hGIPR Potency, 1% HSA, EC50 [pM]

INSERT INTO results (binder, result) VALUES
  ('Compound 49 (reading uncertain) peptide: Y[Aib]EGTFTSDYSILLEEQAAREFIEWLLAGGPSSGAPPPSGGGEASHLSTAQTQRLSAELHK(Chem. 28)LATLPRTETGSGSP-NH2', '16.7 pM'),
  ('Compound 57 (reading uncertain) peptide: Y[Aib]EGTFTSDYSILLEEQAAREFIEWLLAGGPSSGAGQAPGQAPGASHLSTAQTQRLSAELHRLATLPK(Chem. 28)TETGSGSP-NH2', '5.85 pM'),
  ('Compound 67 (peptide) peptide: Y[Aib]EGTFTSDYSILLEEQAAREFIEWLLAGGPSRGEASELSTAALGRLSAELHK([AEEA-AEEA-γGlu-C18 diacid])LATLPRTETGSGSP-NH2', '37 pM'),
  ('Compound 112 (peptide) peptide: H[Aib]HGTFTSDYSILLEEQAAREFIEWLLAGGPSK([γGlu-C18 diacid])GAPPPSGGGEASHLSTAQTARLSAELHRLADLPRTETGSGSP-NH2', '321 pM'),
  ('Compound 87 (peptide) peptide: H[Aib]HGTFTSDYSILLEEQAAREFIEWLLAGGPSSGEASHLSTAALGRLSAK([AEEA-AEEA-γGlu-C18 diacid])LHRLATLPRTETGSGSP-NH2', '38.6 pM'),
  ('Compound 96 (peptide) peptide: Y[Aib]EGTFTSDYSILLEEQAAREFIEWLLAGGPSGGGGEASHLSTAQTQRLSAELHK([AEEA-AEEA-γGlu-C20 diacid])LATLPRTETGSGSP-NH2', '29.9 pM'),
  ('Compound 103 (reading uncertain) peptide: H[Aib]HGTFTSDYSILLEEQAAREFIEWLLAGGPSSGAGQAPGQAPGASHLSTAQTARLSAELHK(Chem. 28)LATLPRTETGSGSP-NH2', '13.3 pM'),
  ('Compound 99 (not fully specified (residue 62)) peptide: Y[Aib]EGTFTSDYSILLEEQAAREFIEWLLAGGPSSGALQAPGQAPLASHLSTAQTQRLSAELHKLATLPRTETGSGSP-NH2', '7.41 pM');
